System: Septoria tritici (St)
Assay: Growth inhibition assay of fungal pathogens, St
Assay type: cell-based
Details: Zymoseptoria tritici, 48 h, Septoria tritici; growth inhibition at 48 hours vs 2% DMSO control; read-out: Concentration at 90% Inhibition St
Protocol: Compounds of the present invention were evaluated in a growth inhibition assay to determine the ability to control the growth of fungal pathogens, such as Botrtyis cinerea (Bc), Collectotrichum graminicola (Cg), Diplodia maydis (Dm), Fusarium moniliforme (Fm), Fusarium virguliforme (Fv), Phytophthora capsici (Pc), Rhizoctonia solani (Rs), and Septoria tritici (St). Compounds to be tested were dissolved in DMSO at 2.5 mg/ml to produce compound stock solutions (“stocks”). […]
IC90 for assorted compounds

{"Compound": "COc1ccc(F)cc1[C@H](Cn1c(=O)n(C(C)(C)C(=O)N2CCCC2)c(=O)c2c(C)c(-n3nccn3)sc21)OC(C)C [Compound I-7]", "System Name": "Septoria tritici (St)", "IC90": "10 µg/mL"}
{"Compound": "COc1ccc(F)cc1[C@H](Cn1c(=O)n(C(C)(C)C(=O)N2CC=CC2)c(=O)c2c(C)c(-n3nccn3)sc21)OC[C@@H](C)O [Compound I-63]", "System Name": "Septoria tritici (St)", "IC90": "> 50 µg/mL"}
{"Compound": "CCNC(=O)C(C)(C)n1c(=O)c2c(C)c(-n3nccn3)sc2n(C[C@H](OCCC#N)c2cc(F)ccc2OC)c1=O [Compound I-140]", "System Name": "Septoria tritici (St)", "IC90": "> 50 µg/mL"}

====

Measured IC50, listed per entry for reference.
Target: human (hACC2) (Homo sapiens, UniProt O00763)
Sequence (O00763 whole entry): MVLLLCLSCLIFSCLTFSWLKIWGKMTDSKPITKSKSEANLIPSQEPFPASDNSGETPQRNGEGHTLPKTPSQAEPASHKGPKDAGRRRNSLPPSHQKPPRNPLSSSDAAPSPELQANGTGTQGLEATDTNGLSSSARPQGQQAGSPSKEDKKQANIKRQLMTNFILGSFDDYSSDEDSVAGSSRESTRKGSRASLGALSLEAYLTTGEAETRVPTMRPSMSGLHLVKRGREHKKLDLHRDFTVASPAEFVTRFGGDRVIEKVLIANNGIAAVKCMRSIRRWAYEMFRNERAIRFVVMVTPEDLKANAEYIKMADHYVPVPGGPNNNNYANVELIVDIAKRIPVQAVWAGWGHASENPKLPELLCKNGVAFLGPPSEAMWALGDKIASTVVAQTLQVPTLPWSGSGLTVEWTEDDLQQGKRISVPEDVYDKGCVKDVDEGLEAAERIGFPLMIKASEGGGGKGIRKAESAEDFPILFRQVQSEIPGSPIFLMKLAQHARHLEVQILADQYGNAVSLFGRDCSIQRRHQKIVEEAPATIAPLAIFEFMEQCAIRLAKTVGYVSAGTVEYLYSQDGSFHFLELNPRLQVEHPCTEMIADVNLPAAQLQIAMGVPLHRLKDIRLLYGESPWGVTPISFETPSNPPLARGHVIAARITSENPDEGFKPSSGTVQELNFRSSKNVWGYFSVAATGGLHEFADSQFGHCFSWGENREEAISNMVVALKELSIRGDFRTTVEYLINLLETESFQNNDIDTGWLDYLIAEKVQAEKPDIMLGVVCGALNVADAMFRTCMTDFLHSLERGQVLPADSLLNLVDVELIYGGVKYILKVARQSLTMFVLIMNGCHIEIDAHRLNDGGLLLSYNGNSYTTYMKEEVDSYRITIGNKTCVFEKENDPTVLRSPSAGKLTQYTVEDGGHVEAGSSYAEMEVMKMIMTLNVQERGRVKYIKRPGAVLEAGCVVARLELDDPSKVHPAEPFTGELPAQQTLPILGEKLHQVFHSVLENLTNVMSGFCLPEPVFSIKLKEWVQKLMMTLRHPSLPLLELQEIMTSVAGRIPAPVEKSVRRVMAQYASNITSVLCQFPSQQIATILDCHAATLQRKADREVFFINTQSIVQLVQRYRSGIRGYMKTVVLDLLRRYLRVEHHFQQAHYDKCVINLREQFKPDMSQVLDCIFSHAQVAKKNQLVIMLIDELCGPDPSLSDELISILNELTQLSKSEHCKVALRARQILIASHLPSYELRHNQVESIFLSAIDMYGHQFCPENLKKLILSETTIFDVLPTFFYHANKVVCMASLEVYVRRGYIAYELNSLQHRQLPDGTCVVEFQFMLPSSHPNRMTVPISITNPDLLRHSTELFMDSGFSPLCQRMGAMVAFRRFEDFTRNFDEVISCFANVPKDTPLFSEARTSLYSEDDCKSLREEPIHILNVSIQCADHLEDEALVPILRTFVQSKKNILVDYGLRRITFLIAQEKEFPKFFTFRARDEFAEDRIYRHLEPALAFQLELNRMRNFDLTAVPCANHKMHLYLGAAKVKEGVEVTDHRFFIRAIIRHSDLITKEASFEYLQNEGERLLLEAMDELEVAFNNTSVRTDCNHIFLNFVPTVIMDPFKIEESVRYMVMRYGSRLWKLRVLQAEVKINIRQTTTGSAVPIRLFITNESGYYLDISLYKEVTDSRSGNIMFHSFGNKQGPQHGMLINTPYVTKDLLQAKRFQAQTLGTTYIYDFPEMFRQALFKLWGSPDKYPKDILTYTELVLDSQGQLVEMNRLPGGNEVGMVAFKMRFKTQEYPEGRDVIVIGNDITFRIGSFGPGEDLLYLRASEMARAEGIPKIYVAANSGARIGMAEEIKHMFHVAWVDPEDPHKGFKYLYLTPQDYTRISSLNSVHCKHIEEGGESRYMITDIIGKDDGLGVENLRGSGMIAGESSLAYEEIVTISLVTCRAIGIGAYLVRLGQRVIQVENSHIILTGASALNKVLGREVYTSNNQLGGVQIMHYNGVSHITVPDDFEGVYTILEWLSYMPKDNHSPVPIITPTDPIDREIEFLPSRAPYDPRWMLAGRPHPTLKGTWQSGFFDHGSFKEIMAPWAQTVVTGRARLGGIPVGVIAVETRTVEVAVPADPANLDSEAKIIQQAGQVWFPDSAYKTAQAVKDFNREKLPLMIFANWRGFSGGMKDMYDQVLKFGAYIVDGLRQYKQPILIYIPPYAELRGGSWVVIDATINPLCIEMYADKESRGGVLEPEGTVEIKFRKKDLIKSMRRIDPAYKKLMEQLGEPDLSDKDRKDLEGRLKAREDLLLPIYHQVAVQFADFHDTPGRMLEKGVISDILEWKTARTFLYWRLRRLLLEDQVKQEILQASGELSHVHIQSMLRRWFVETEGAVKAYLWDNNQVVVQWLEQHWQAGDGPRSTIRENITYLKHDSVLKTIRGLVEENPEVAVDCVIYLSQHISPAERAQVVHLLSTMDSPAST
Test: In vitro ACC inhibition assay (ADP-Glo), hACC2
Assay type: biochemical
Settings: Table 2a, 5 nM ACC2, 20 μM ATP, 20 μM acetyl-CoA
Method: The detailed procedure is as follows. […] 10 μL ADP glo reagent was added. […] 20 μL kinase detection reagent was added.
Measure Name: IC50

{"Chem Smiles": "COc1ccc(F)cc1[C@H](Cn1c(=O)n([C@H](C)C(=O)N(C)C(C)C)c(=O)c2c(C)c(-n3nccn3)sc21)OCCC#N", "Measure Name": "IC50", "Recorded Value": "5 to 10 nM"}
{"Chem Smiles": "COCCO[C@@H](Cn1c(=O)n(C(C)(C)C(=O)N2CCCC2)c(=O)c2c(C)c(-n3nccn3)sc21)c1cc(F)ccc1OC", "Measure Name": "IC50", "Recorded Value": "10 to 40 nM"}
{"Chem Smiles": "COc1ccc(F)cc1[C@H](Cn1c(=O)n(C(C)(C)C(=O)NC(C)C)c(=O)c2c(C)c(-n3nccn3)sc21)OCC(C)=O", "Measure Name": "IC50", "Recorded Value": "1 to 5 nM"}
{"Chem Smiles": "COc1ccc(F)cc1[C@H](Cn1c(=O)n(C(C)(C)C(=O)N2CC=CC2)c(=O)c2c(C)c(-n3nccn3)sc21)OC1CCOCC1", "Measure Name": "IC50", "Recorded Value": "1 to 5 nM"}
{"Chem Smiles": "COc1ccc(F)cc1[C@H](Cn1c(=O)n(C(C)(C)C(=O)NC2CC2)c(=O)c2c(C)c(-n3nccn3)sc21)OC(C)C", "Measure Name": "IC50", "Recorded Value": "5 to 10 nM"}
{"Chem Smiles": "COc1ccc(F)cc1[C@H](Cn1c(=O)n(C(C)(C)C(=O)N(O)C(C)C)c(=O)c2c(C)c(-n3nccn3)sc21)OCCCO", "Measure Name": "IC50", "Recorded Value": "5 to 10 nM"}
{"Chem Smiles": "CCNC(=O)C(C)(C)n1c(=O)c2c(C)c(-n3nccn3)sc2n(C[C@H](OC(C)C)c2cc(F)ccc2OC)c1=O", "Measure Name": "IC50", "Recorded Value": "5 to 10 nM"}
{"Chem Smiles": "[2H]C([2H])([2H])Oc1ccccc1[C@H](Cn1c(=O)n(C(C)(C)C(N)=O)c(=O)c2c(C)c(-n3nccn3)sc21)OC1CCOCC1", "Measure Name": "IC50", "Recorded Value": "5 to 10 nM"}
{"Chem Smiles": "COc1ccc(F)cc1[C@H](Cn1c(=O)n([C@H](C)C(=O)N(C)C(C)C)c(=O)c2c(C)c(-n3nccn3)sc21)O[C@H]1CC[C@@H](O)CC1", "Measure Name": "IC50", "Recorded Value": "1 to 5 nM"}

====

biological target: fungal (fACC2) (UniProt Q00955); conditions: read-out: fACC2 (in vitro ACC2 Inhibition Assay, IC50); Table 2a; ADP-Glo, 5 nM ACC2, 20 μM ATP, 20 μM acetyl-CoA
Sequence (Q00955 whole entry): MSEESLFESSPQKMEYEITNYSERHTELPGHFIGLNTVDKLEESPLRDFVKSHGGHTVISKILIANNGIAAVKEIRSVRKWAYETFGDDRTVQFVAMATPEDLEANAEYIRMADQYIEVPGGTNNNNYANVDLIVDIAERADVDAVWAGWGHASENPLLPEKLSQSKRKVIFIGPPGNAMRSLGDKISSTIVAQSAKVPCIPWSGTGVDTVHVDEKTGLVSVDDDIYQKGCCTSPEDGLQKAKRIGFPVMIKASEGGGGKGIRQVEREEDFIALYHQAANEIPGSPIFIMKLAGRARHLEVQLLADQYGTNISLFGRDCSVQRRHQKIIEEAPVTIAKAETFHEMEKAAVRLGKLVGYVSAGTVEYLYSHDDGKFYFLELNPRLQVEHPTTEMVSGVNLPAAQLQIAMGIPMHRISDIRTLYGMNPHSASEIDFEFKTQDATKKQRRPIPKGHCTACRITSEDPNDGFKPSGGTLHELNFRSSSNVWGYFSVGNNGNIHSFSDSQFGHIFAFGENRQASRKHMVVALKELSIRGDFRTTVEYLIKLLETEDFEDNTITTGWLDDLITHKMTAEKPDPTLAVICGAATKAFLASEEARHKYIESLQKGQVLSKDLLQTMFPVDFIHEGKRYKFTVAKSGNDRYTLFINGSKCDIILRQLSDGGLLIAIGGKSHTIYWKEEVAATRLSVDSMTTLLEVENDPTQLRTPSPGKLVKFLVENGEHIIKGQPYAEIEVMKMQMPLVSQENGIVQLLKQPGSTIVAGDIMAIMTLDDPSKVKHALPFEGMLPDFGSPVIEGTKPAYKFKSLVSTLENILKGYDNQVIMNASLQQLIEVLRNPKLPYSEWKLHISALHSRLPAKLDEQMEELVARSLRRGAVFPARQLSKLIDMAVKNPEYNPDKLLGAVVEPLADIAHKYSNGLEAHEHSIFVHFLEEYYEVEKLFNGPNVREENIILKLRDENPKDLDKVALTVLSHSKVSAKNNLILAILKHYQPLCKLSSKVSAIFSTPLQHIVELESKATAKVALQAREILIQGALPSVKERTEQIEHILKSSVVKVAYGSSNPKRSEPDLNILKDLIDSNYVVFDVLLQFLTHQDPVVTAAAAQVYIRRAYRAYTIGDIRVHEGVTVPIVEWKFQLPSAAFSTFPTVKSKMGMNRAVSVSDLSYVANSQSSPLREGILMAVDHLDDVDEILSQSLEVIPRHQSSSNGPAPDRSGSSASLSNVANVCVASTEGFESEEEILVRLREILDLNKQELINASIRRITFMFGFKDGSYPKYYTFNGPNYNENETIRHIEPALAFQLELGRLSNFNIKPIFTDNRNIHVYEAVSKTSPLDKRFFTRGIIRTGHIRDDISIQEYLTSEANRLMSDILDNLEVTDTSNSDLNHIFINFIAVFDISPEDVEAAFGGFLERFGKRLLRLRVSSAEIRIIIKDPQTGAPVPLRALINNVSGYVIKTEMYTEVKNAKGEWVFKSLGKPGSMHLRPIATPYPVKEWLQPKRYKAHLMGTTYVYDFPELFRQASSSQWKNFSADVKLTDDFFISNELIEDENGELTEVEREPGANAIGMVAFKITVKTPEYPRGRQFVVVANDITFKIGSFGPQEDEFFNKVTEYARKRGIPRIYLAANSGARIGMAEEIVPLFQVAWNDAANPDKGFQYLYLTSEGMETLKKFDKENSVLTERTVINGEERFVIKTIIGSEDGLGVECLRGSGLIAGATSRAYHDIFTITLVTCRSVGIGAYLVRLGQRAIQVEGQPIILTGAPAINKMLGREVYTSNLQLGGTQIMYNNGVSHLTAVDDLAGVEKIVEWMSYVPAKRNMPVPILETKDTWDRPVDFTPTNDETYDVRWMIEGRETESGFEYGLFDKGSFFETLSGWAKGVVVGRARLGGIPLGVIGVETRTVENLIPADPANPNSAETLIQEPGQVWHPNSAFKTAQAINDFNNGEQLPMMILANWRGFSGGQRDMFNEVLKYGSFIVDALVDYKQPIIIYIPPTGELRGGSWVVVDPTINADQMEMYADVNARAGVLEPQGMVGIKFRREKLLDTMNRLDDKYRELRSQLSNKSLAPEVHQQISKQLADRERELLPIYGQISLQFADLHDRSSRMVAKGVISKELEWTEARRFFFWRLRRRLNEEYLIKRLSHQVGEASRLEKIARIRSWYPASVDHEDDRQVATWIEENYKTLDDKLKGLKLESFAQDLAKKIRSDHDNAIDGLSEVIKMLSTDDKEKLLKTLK
Measure Name: IC50

{"Chem Smiles": "CCNC(=O)C(C)(C)n1c(=O)c2c(C)c(-n3nccn3)sc2n(C[C@H](OCCC#N)c2cc(F)ccc2OC)c1=O", "Recorded Value": "1 to 5 nM"}
{"Chem Smiles": "COc1ccc(F)cc1[C@H](Cn1c(=O)n(C(C)(C)C(=O)NCC#N)c(=O)c2c(C)c(-n3nccn3)sc21)OC(C)C", "Recorded Value": "1 to 5 nM"}
{"Chem Smiles": "CNC(=O)C(C)(C)n1c(=O)c2c(C)c(-n3nccn3)sc2n(C[C@H](OC(C)C)c2cc(F)ccc2OC)c1=O", "Recorded Value": "1 to 5 nM"}
{"Chem Smiles": "COc1ccc(F)cc1[C@H](Cn1c(=O)n(C(C)(C)C(=O)NC(C)C)c(=O)c2c(C)c(-n3nccn3)sc21)OC[C@@H](C)O", "Recorded Value": "1 to 5 nM"}
{"Chem Smiles": "COc1ccc(F)cc1[C@H](Cn1c(=O)n(C(C)(C)C(N)=O)c(=O)c2c(C)c(-n3nccn3)sc21)OC[C@@H](C)C#N", "Recorded Value": "0.4 to 1 nM"}
{"Chem Smiles": "COc1ccc(F)cc1[C@H](Cn1c(=O)n(C(C)(C)C(=O)NC(C)C)c(=O)c2c(C)c(-n3nccn3)sc21)OC(C)C", "Recorded Value": "1 to 5 nM"}
{"Chem Smiles": "Cc1c(-n2nccn2)sc2c1c(=O)n(C(C)(C)C(=O)N1CCCC1)c(=O)n2C[C@H](OC1CCOCC1)c1cc(F)ccc1OCCO", "Recorded Value": "0.4 to 1 nM"}

====

system: C. krusei; test: Antifungal Activity Assay (broth microtiter MIC), C. krusei; format: cell-based, Candida krusei; conditions: Pichia kudriavzevii, ATCC6258, 48 h, Table 3b (additional results); ATCC 6258; 3 replicates; MIC recorded at 48 h; read-out: MIC, C. krusei ATCC 6258
Measure Name: MIC

{"Chem Smiles": "COc1ccc(F)cc1[C@H](Cn1c(=O)n([C@@H](C)C(=O)N(C)C(C)C)c(=O)c2c(C)c(-n3nccn3)sc21)OC1CCC(=O)CC1", "Recorded Value": "0.25 to 1 µg/mL"}
{"Chem Smiles": "COc1ccc(F)cc1[C@H](Cn1c(=O)n(C(C)(C)C(=O)NC(C)C)c(=O)c2c(C)c(-n3nccn3)sc21)OCCC(=O)O", "Recorded Value": "0.25 to 1 µg/mL"}
{"Chem Smiles": "COc1ccc(F)cc1[C@H](Cn1c(=O)n(C(C)(C)C(=O)NC(C)C)c(=O)c2c(C)c(-n3nccn3)sc21)O[C@H]1C[C@@H](O)C1", "Recorded Value": "0.25 to 1 µg/mL"}
{"Chem Smiles": "COCCO[C@@H](Cn1c(=O)n([C@H](C)C(=O)N2CCCC2)c(=O)c2c(C)c(-n3nccn3)sc21)c1cc(F)ccc1OC", "Recorded Value": "2.01 to 4 µg/mL"}
{"Chem Smiles": "CCc1ccc(F)cc1[C@H](Cn1c(=O)n(C(C)(C)C(=O)NC(C)C)c(=O)c2c(C)c(-n3nccn3)sc21)OCC(C)(C)C#N", "Recorded Value": "> 4.01 µg/mL"}
{"Chem Smiles": "COc1ccc(F)cc1[C@H](Cn1c(=O)n([C@H](C)C(=O)NC2CCC2)c(=O)c2c(C)c(-n3nccn3)sc21)OCCO", "Recorded Value": "0.25 to 1 µg/mL"}
{"Chem Smiles": "COc1ccc(F)cc1[C@@H](O)Cn1c(=O)n([C@H](C)C(=O)N2CCCC2)c(=O)c2c(C)c(-n3nccn3)sc21", "Recorded Value": "1.01 to 2 µg/mL"}
{"Chem Smiles": "Cc1c(-n2nccn2)sc2c1c(=O)n(C(C)(C)C(=O)NC(C)C)c(=O)n2C[C@H](OCCC#N)c1cc(F)ccc1O", "Recorded Value": "2.01 to 4 µg/mL"}
{"Chem Smiles": "CCc1ccc(F)cc1[C@H](Cn1c(=O)n(C(C)(C)C(=O)NC(C)C)c(=O)c2c(C)c(-n3nccn3)sc21)OC[C@@H](C)C#N", "Recorded Value": "> 4.01 µg/mL"}
{"Chem Smiles": "CCOC(=O)[C@H]1CC[C@@H](O[C@@H](Cn2c(=O)n(C(C)(C)C(=O)NC(C)C)c(=O)c3c(C)c(-n4nccn4)sc32)c2cc(F)ccc2OC)CC1", "Recorded Value": "0.06 to 0.249 µg/mL"}
